This section presents compounds with their documented Activity values.
# SYSTEM_UNDER_TEST: Mitogen-activated protein kinase kinase kinase 9 (Homo sapiens)
# ASSAY_PROCEDURE: Enzymatic radiometric [Km ATP] KinaseProfiler LeadHunter assay, kinase: MLK1, catalogue number: 14-690KP The assay has been performed by Eurofins Discovery.
# RUN_CONDITIONS: ATP concentration 45.0 uM, Test compound concentration 10.0 uM
MEASUREMENT_KIND: Activity (%)

| CHEM_SMILES | SYSTEM_UNDER_TEST | MEASUREMENT_KIND | QUANTITATIVE_RESULT |
| --- | --- | --- | --- |
| Cc1nn(C)cc1-c1cc2c(N[C@H](c3ccc4c(c3)S(=O)(=O)CCC4)C(C)C)ncnc2[nH]1 | Mitogen-activated protein kinase kinase kinase 9 (Homo sapiens) | Activity | 79 |
| COc1ccc([C@H](Cc2nnn[nH]2)NC(=O)c2ncnc3[nH]ccc23)cc1 | Mitogen-activated protein kinase kinase kinase 9 (Homo sapiens) | Activity | 87 |
| CNC(=O)Cn1cc(-c2cc3c(N[C@@H](c4ccc5c(c4)S(=O)(=O)CCC5)C(C)C)ncnc3[nH]2)cn1 | Mitogen-activated protein kinase kinase kinase 9 (Homo sapiens) | Activity | 89 |
| COc1ccc([C@@H](Cc2nnn[nH]2)NC(=O)c2ncnc3[nH]ccc23)cc1 | Mitogen-activated protein kinase kinase kinase 9 (Homo sapiens) | Activity | 85 |
| CC(C)[C@@H](Nc1ncnc2[nH]c(C(=O)N[C@@H]3CCN(C)C3)cc12)c1ccc2c(c1)S(=O)(=O)CCC2 | Mitogen-activated protein kinase kinase kinase 9 (Homo sapiens) | Activity | 96 |
| CC(C)[C@@H](Nc1ncnc2[nH]ccc12)c1ccc2c(c1)S(=O)(=O)CCC2 | Mitogen-activated protein kinase kinase kinase 9 (Homo sapiens) | Activity | 81 |
| CC(C)[C@H](Nc1ncnc2[nH]ccc12)c1ccc2c(c1)S(=O)(=O)CCC2 | Mitogen-activated protein kinase kinase kinase 9 (Homo sapiens) | Activity | 84 |
| C[C@H](C(=O)O)[C@@H](NC(=O)c1ncnc2[nH]ccc12)c1ccc(Br)cc1 | Mitogen-activated protein kinase kinase kinase 9 (Homo sapiens) | Activity | 86 |
| Cn1ncc(-c2cc3c(N[C@@H](c4ccc5c(n4)OCCO5)C(C)(C)C)ncnc3[nH]2)c1C#N | Mitogen-activated protein kinase kinase kinase 9 (Homo sapiens) | Activity | 94 |
| CNCc1cc(-c2cc3c(N[C@@H](c4ccc5c(c4)S(=O)(=O)CCC5)C(C)C)ncnc3[nH]2)co1 | Mitogen-activated protein kinase kinase kinase 9 (Homo sapiens) | Activity | 86 |
| CC(C)[C@H](Nc1ncnc2[nH]c(-c3cnn(C)c3C#N)cc12)c1ccc2c(n1)OCCO2 | Mitogen-activated protein kinase kinase kinase 9 (Homo sapiens) | Activity | 73 |

* * *

This section presents compounds with their documented Activity values.
# SYSTEM_UNDER_TEST: UniProtKB Q96SB4
# Sequence (Q96SB4 whole entry): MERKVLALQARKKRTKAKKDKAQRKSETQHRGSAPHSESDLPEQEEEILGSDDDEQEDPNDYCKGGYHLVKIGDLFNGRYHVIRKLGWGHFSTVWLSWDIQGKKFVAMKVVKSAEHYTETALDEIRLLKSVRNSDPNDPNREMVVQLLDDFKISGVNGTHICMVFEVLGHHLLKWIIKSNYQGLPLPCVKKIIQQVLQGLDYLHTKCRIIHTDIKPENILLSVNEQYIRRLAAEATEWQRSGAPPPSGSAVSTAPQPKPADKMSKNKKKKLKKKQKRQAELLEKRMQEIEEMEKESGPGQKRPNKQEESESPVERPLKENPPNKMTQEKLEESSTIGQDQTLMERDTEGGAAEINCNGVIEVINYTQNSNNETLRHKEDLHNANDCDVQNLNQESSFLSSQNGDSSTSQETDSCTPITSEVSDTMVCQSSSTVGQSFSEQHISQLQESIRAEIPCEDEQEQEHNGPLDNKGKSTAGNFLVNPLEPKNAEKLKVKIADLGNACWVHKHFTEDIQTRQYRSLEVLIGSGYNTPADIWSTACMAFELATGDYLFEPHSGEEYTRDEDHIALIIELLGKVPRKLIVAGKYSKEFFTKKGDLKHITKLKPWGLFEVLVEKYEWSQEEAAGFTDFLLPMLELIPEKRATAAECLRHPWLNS
# ASSAY_PROCEDURE: Enzymatic radiometric [Km ATP] KinaseProfiler LeadHunter assay, kinase: SRPK1, catalogue number: 14-564KP The assay has been performed by Eurofins Discovery.
# RUN_CONDITIONS: ATP concentration 10.0 uM, Test compound concentration 10.0 uM

| CHEM_SMILES | Activity / % |
| --- | --- |
| CC(C)[C@H](Nc1ncnc2[nH]c(-c3cnn(C)c3C#N)cc12)c1ccc2c(n1)OCCO2 | 111 |
| COc1ccc([C@@H](Cc2nnn[nH]2)NC(=O)c2ncnc3[nH]ccc23)cc1 | 102 |
| COc1ccc([C@H](Cc2nnn[nH]2)NC(=O)c2ncnc3[nH]ccc23)cc1 | 103 |
| CNC(=O)Cn1cc(-c2cc3c(N[C@@H](c4ccc5c(c4)S(=O)(=O)CCC5)C(C)C)ncnc3[nH]2)cn1 | 94 |
| Cn1ncc(-c2cc3c(N[C@@H](c4ccc5c(n4)OCCO5)C(C)(C)C)ncnc3[nH]2)c1C#N | 117 |
